These measurements were taken from ChEMBL document CHEMBL3301472.

Assay: MMV: MTT Cytotoxicity Assay Day 7 pi of Assay #6 (compound washed out Day 1 pi), U87-CD4-CCR5 cells, % cell death @ 5mM compound
Format: toxicity, cell-based
Details: human, u87-cd4-ccr5, 5000 µM
endpoint: % Cell Death
Lab note: jot the number down without any unit.

A selection of reference data follows.
- compound: "COc1ccc2c(c1)C1(Nc3ccccc3-c3nc4ccccc4n31)C(=O)N2 (stereo unspecified)"
  % Cell Death: -9
- compound: "COc1ccc(-c2cc3c(SCC(=O)Nc4cc(C(F)(F)F)ccc4Cl)nccn3n2)cc1"
  % Cell Death: 5
- compound: "CC(C)(C)c1ccc2c(c1)CN(Cc1ccc(Cl)cc1)CO2"
  % Cell Death: 66
- compound: "OC(CNC1CCCCC1)Cn1c2ccc(I)cc2c2cc(I)ccc21 (stereo unspecified)"
  % Cell Death: 3
- compound: "Cl.Clc1cc(Br)ccc1-c1ccc(CNCC2CCNCC2)o1"
  % Cell Death: -9

Record summary for `COc1ccc(-c2nc(N3CCN(C(=O)C4CCCCC4)CC3)c3c4c(sc3n2)CCCC4)cc1` : reported % Cell Death = -3

---

Experiment: MMV: MTT Cytotoxicity Assay Day 3 pi, U87-CD4-CXCR4 cells, % cell death @ 5mM compound
Type: toxicity, cell-based
Settings: human, u87-cd4-cxcr4, 5000 µM
Hi, to clarify the labels: YES covers % Cell Death from 20 upward, NO covers anything below 20.

Here are 4 compounds together with their reported answers.
- compound: "COc1ccc(CNC2CCN(c3ccc(NC(=O)c4cccc(Cl)c4)cc3)CC2)cc1OC"
  label.class: "NO"
- compound: "OC(CNC1CCCCC1)Cn1c2ccccc2c2ccccc21 (stereo not drawn)"
  label.class: "NO"
- compound: "Cc1cc(NC(=O)c2cccc(C(F)(F)F)c2)n(-c2nc(-c3ccc4c(c3)OCO4)cs2)n1"
  label.class: "NO"
- compound: "C=CCc1c(C)nc2ccccc2c1O"
  label.class: "YES"

QUERY: Can COc1ccc2c(c1)C1(Nc3ccccc3-c3nc4ccccc4n31)C(=O)N2 (stereo not drawn) be said to have % Cell Death at or above 20?
RESULT: NO

QUERY: Can `O=c1cc(NC2CCN(CCCc3ccccc3)CC2)c2cc(Cl)ccc2o1` be said to have % Cell Death at or above 20?
RESULT: NO

---

Tested on: Human immunodeficiency virus 1
Experiment: MMV: HIV CXCR4-tropic env NL4-3 pseudovirus assay produces luciferase signal in lieu of replicating viral particles Day 3 pi, U87-CD4-CXCR4, % inhibition at 5 mM compound
Format: functional
Design: dose or concentration left out as unconfirmed
Settings: Human immunodeficiency virus 1, NL4-3, U87.CD4.CXCR4, 72 h
Hi, to clarify the labels: Met covers inhibition from 2% upward, Not met covers anything below 2%.

- compound: "Cl.Oc1ccccc1CNCC12CC3CC(CC(C3)C1)C2"
  label.class: "Met"
- compound: "CSc1ccccc1C(=O)Nc1nc(-c2ccccn2)cs1"
  label.class: "Met"
- compound: "Cc1cc(C)cc(Nc2cc(C)nc3nc(C(F)(F)F)nn23)c1"
  label.class: "Met"

QUERY: Can `Oc1ccc(-c2nc(-c3ccc4oc5ccc(-c6[nH]c(-c7ccc(O)cc7)nc6-c6ccccc6)cc5c4c3)c(-c3ccccc3)[nH]2)cc1` be said to have inhibition at or above 2%?
RESULT: Not met

QUERY: Can COc1ccc(C(C)=O)cc1N1C(=O)C2C(C1=O)C1(c3ccccc3)C(=O)C2(c2ccccc2)C(c2ccc(C)cc2)=C1c1ccc(C)cc1 (stereo not given) be said to have inhibition at or above 2%?
RESULT: Met

QUERY: Can `COc1cccc(NC(=O)Cn2c(C)c(C#N)c3ccccc32)c1` be said to have inhibition at or above 2%?
RESULT: Met

QUERY: Can OC(CNCC1CCCO1)Cn1c2ccc(Cl)cc2c2cc(Cl)ccc21 (stereo not given) be said to have inhibition at or above 2%?
RESULT: Not met
